Test system: A673/TR/shEF
Assay: cell viability (LOESS-normalised, relative to median of negative controls) (log2 ratio); higher = more viable cells (less compound effect), active = hit call of the paper (over 3 MAD below the median)
Details: 2.5 µM; library screen: screen1; EWS-FLI1 expression: high (no doxycycline); treatment time: 72 h
Out of some 3,200 compounds screened, about 300 (9.4%) showed activity. This excerpt belongs to a sample that is enriched for actives.
Respond with a class label; see YES = active, NO = inactive

Check out these entries, answers already filled in.
compound	group label
COCCOC(=O)C1=C(C)NC2=C(C(=O)CCC2)C1c1ccc(C)s1 (stereo unspecified)	NO
COc1ccc(OC)c(CN2CCN(Cc3ccc([N+](=O)[O-])cc3)CC2)c1	NO
Fc1cccc(CN2CCN(Cc3ccco3)CC2)c1	NO
CC1=C(C(=O)Nc2ccccc2Cl)C(c2ccc(F)cc2)NC(=O)N1 (stereo unspecified)	NO
C/C=C/CC(C)C(O)C1C(=O)NC(CC)C(=O)N(C)CC(=O)N(C)C(CC(C)C)C(=O)NC(C(C)C)C(=O)N(C)C(CC(C)C)C(=O)NC(C)C(=O)NC(C)C(=O)N(C)C(CC(C)C)C(=O)N(C)C(CC(C)C)C(=O)N(C)C(C(C)C)C(=O)N1C (stereo unspecified)	NO
CC1(C)C(=O)C=C[C@@]2(C)C1CC(=O)[C@@]1(C)C3=CC(=O)O[C@@H](c4ccoc4)[C@]3(C)CCC12 (stereo partly specified)	NO

[Q] Entry O=C(Nc1ccncc1)c1cc(-c2ccccc2)nc2ccccc12 : call = ?
[A] NO

[Q] Entry CC(=O)O[C@H]1C[C@@H](OC(C)=O)C(C)(C)C2CC(=O)[C@]3(C)C(CC[C@@]4(C)[C@H](c5ccoc5)OC(=O)[C@H]5O[C@]543)[C@]21C (stereo partly specified) : call = ?
[A] NO

[Q] Entry NCCC(=O)c1ccccc1N : call = ?
[A] NO

[Q] Entry CC1=C[C@@H]2[C@@H](CC1)[C@](C)(O)CC[C@H]2C(C)C : call = ?
[A] NO

[Q] Entry O=C(O)c1c2ccccc2cc2ccccc12 : call = ?
[A] NO

[Q] Entry CCOC(=O)c1sc(C)c2c(=O)n(C3CCCCC3)cnc12 : call = ?
[A] NO

[Q] Entry C=CC(C)(O)CC/C=C(\C)CCC=C(C)C (stereo unspecified) : call = ?
[A] NO

[Q] Entry COc1ccc2c(=O)c(-c3cc4c(cc3OC)OCO4)coc2c1 : call = ?
[A] NO

[Q] Entry COc1cc2ncc(-c3ccccc3)nc2cc1OC : call = ?
[A] NO

[Q] Entry Cc1c(OCC(F)(F)F)ccnc1C[S+]([O-])c1nc2ccccc2[nH]1 (stereo unspecified) : call = ?
[A] NO

[Q] Entry NC(N)=NCCC[C@H](N[C@H](CCC(=O)O)C(=O)O)C(=O)O : call = ?
[A] NO

[Q] Entry NC[C@@H]1O[C@H](O[C@H]2[C@@H](O)[C@H](O[C@@H]3[C@@H](O)[C@H](N)C[C@H](N)[C@H]3O[C@H]3O[C@H](CO)[C@@H](O)C[C@H]3N)O[C@@H]2CO)[C@H](N)[C@@H](O)[C@@H]1O[C@H]1O[C@H](CO)[C@@H](O)[C@H](O)[C@@H]1O : call = ?
[A] NO

[Q] Entry COC(=O)C1=C(C)N=c2sc(=Cc3cccs3)c(=O)n2C1c1ccc(OC)cc1 (stereo unspecified) : call = ?
[A] NO

[Q] Entry CC(=O)N1CCN(c2nc(-c3ccccc3)c3cc(Br)ccc3n2)CC1 : call = ?
[A] NO

[Q] Entry N=C1C=CC(=C(c2ccc(N)cc2)c2ccc(N)cc2)C=C1 : call = ?
[A] YES

[Q] Entry CC(=O)O[C@H]1C(=O)[C@@]2(C)[C@H]([C@H](OC(=O)c3ccccc3)[C@]3(O)C[C@H](OC(=O)[C@H](O)[C@@H](NC(=O)c4ccccc4)c4ccccc4)C(C)=C1C3(C)C)[C@]1(OC(C)=O)CO[C@@H]1C[C@@H]2O : call = ?
[A] YES

[Q] Entry COc1cc(C(=O)N2CCOCC2)c([N+](=O)[O-])cc1OC : call = ?
[A] NO

[Q] Entry O=C(Nc1ccccn1)c1cc(-c2ccccc2)nc2ccccc12 : call = ?
[A] NO

[Q] Entry COc1ccc(C[C@@H](N)C(=O)N[C@H]2[C@@H](O)[C@H](n3cnc4c(N(C)C)ncnc43)O[C@@H]2CO)cc1 : call = ?
[A] YES

[Q] Entry C/C(=C\CO)CCC[C@H](C)CCC[C@H](C)CCCC(C)C : call = ?
[A] NO

[Q] Entry CC1=C(C(=O)OC2CCCC2)C(c2coc3ccccc3c2=O)C2=C(CC(C)(C)CC2=O)N1 (stereo unspecified) : call = ?
[A] NO
